Test: Pharmacokinetics of metabolite AV19-144 in plasma after oral AV2-73 (LC-MS/MS)
Format: in vivo
Conditions: human, plasma, oral; after 60 mg AV2-73, FIG. 2; read-out: mean residence time of AV19-144

{"columns": ["compound", "MRT"],
 "data": [
  ["CNCC1CCOC1(c1ccccc1)c1ccccc1.Cl (stereo not shown)", "42.7 h"]
]}

----------
Test: Pharmacokinetics of metabolite AV19-144 in plasma after oral AV2-73 (LC-MS/MS)
Format: in vivo
Details: human, oral; across the 10 to 60 mg AV2-73 dose steps, plasma, FIG. 1; read-out: mean terminal elimination half-life t1/2 of AV19-144

{"columns": ["compound", "half-life"],
 "data": [
  ["CNCC1CCOC1(c1ccccc1)c1ccccc1.Cl (stereo not shown) [A19-144]", "8.56 to 28.7 h"]
]}

----------
Test: Pharmacokinetics of metabolite AV19-144 in plasma after oral AV2-73 (LC-MS/MS)
Format: in vivo
Details: human, oral; across the 10 to 60 mg AV2-73 dose steps, plasma, FIG. 1

{"columns": ["molecule", "Cmax"],
 "data": [
  ["CNCC1CCOC1(c1ccccc1)c1ccccc1.Cl (stereo not shown) [A19-144]", "1.31 to 22.3 ng/mL"]
]}
